tested-on: T1, recombinant human CD123-Fc (human, UniProt P26951 19-305)
T1 construct: not shown: Fc part of CD123-Fc
T1 sequence: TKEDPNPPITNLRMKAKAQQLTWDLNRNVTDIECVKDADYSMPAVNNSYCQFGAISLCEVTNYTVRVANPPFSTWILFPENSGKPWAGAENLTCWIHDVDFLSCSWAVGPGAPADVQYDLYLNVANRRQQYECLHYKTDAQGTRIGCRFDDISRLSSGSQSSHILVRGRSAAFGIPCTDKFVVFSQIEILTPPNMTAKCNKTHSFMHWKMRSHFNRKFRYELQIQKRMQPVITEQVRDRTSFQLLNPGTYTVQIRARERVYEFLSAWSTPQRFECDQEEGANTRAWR
protocol-summary: phage ELISA, captured CD123-Fc
ELISA_avg below 4 ratio A450 target/IgG1-Fc gives N; ELISA_avg at or above it gives Y.

// known answers, use as guide
>>> class_assignment("SEQ ID NO: 369 (designed binder, D domain, on phage) MGSWFEFDDRLWAIENRLWALGGSEAELAAFEKEIAAFESELQAYKGKGNPEVEVLRDNAAWIREILQAYRHN")
"Y"
>>> class_assignment("SEQ ID NO: 591 (designed binder, D domain, on phage) MGSWVEFDNRLFAIDERLWALGGSEAELAWFEEEIASFEDNLQKYKGKGNPEVEALQLEAFAIMEELDAYRHN")
"N"
>>> class_assignment("SEQ ID NO: 569 (designed binder, D domain, on phage) MGSWNEFVERLSAIDHRLWALGGSEAELADFEQQIAEFEIHLQEYKGKGNPEVEALDFEADAIFDELLAYRHN")
"N"
>>> class_assignment("SEQ ID NO: 586 (designed binder, D domain, on phage) MGSWHEFEKRLYAIEDRLIALGGSEAELAWFEDSIAWFEWDLQMYKGKGNPEVEALNEEADAIYQELDAYRHN")
"N"
>>> class_assignment("SEQ ID NO: 477 (designed binder, D domain, on phage) MGSWSWFKEDLADIKFELEALGGSEAELAWFELDIADFEQALQQYKGKGNPEVEALRKEAAAIRDELQAYRHN")
"Y"
>>> class_assignment("SEQ ID NO: 473 (designed binder, D domain, on phage) MGSWHWFKEDLAIIKQDLEALGGSEAELATFEQWIAEFEWDLQEYKGKGNPEVEALRKEAAAIRDELQAYRHN")
"Y"

Hello, I need to know if SEQ ID NO: 611 (designed binder, D domain, on phage) MGSWEEFEWRLDAIDERLWALGGSEAELATFEYEIAIFENELQQYKGKGNPEVEALDSEAYAIERELGAYRHN has measured ELISA_avg not below 4 ratio A450 target/IgG1-Fc. Thanks!
Y

Hello, I need to know if SEQ ID NO: 599 (designed binder, D domain, on phage) MGSWYEFQERLDAIDSRLWALGGSEAELAWFEYTIAEFEKELQMYKGKGNPEVEALGTEAVAISEELMAYRHN has measured ELISA_avg not below 4 ratio A450 target/IgG1-Fc. Thanks!
Y
